Reported values of GI50 for individual entries
- Tested on: SF-539
- assayRemarks: NCI tumour cell line growth inhibition, 48 h
Activity calls are given as the source filed them. No stated cut-off is given here; in the data, active = GI50 up to about 1.1 µM and inactive = higher.

As a guide, the following entries are already answered.
CCOC(=O)C1=COC(C)(c2ccccc2)CC1=O (stereo not drawn)
> 100 µM (inactive)
O=C(O)CP(=S)(S)c1ccccc1 (stereo not drawn)
> 100 µM (inactive)
CCCCCCCCSC1=C(Cl)C(=O)C(OC)=C(OC)C1=O
14.2 µM (inactive)
COC(=O)C1=Cc2cc(OC)c(O)cc2[C@@H](c2ccc(O)c(OC)c2)[C@@H]1C(=O)OC
> 100 µM (inactive)
CCOC(=O)N1CCc2cc(OC)c(OC)cc2/C1=C\c1ccc(OC)c(OC)c1
23.2 µM (inactive)

Param item: NS(=O)(=O)c1cc(C(=O)O)c(Cl)c([N+](=O)[O-])c1Cl ; param system: SF-539; output GI50: > 100 µM (inactive)

Param item: CC(=O)c1ccc2c(c1)c1c(C)c3c[n+](C)ccc3c(C)c1n2C ; param system: SF-539; output GI50: 2.37 µM (inactive)

Param item: CCOC1=NC(C(F)(F)F)(C(F)(F)F)N=C(N2CCOCC2)O1 ; param system: SF-539; output GI50: > 100 µM (inactive)

Param item: Nc1ncnc2c1ncn2CC(O)CO (stereo not drawn) ; param system: SF-539; output GI50: > 100 µM (inactive)

Param item: CC1(C)[C@@H]2CC[C@]1(C)[C@H](OC(=O)CSC#N)C2 ; param system: SF-539; output GI50: 28.7 µM (inactive)

----------
- Tested on: ACHN
- assayRemarks: NCI tumour cell line growth inhibition, 48 h
Calls of active or inactive are those of the source. Rule as the data show it: active = GI50 up to about 1.1 µM and inactive = higher. Square brackets hold non-standard residues; d marks the D form. Peptide text beside a SMILES is read from it. * marks the point of attachment. ξ: configuration not given here. NMeN = CN[C@@H](CC(N)=O)C(=O)O; NMeV = CN[C@H](C(=O)O)C(C)C; ξNMeV = CNC(C(=O)O)C(C)C; Boc = CC(C)(C)OC(=O)*; ξNMeA = CNC(C)C(=O)O
assayMetric: GI50

CCCCNC(=O)OCC(COc1ccccc1OC)OC(=O)NCCCC (stereo unspecified)
> 100 µM (inactive)
NC1CNC(=O)c2c(Cl)sc(Cl)c21 (stereo unspecified)
> 100 µM (inactive)
NCCN1C(=O)c2ccccc2C1c1ccc(Cl)cc1 (stereo unspecified)
> 100 µM (inactive)
CC1(C)CCc2cc3c(cc2O1)OCCC3=O
> 100 µM (inactive)
COc1ccc(N2C(=O)C(C#N)=C(SC)C(C#N)C2=O)cc1 (stereo unspecified)
> 100 µM (inactive)

// Cc1noc2nnn(-c3ccc(Cl)cc3)c(=O)c12 : GI50 value = 3.59 µM (inactive)

// COc1ccc(/N=N/N2CCCC2)cc1 : GI50 value = 15.5 µM (inactive)

// COc1ccc(C2=N/C(=C\c3ccccc3)C(=O)O2)cc1 : GI50 value = > 100 µM (inactive)

// O=c1c2c(F)c(F)c(F)c(F)c2sc2nccn12 : GI50 value = 16.4 µM (inactive)

// COC(=O)C(C)N(C)C(=O)[C@H](CC(N)=O)N(C)C(=O)[C@@H]1CCCN1C(=O)[C@H](C(C)C)N(C)C(=O)C(C(C)C)N(C)C(=O)[C@@H](NC(=O)OC(C)(C)C)C(C)C (stereo partly specified) (Boc-V[ξNMeV][NMeV]P[NMeN][ξNMeA]-OMe) : GI50 value = > 50 µM (inactive)

// c1ccc2c(c1)ncn2CCn1ccnc1 : GI50 value = > 100 µM (inactive)

The measured values listed here are drawn from ChEMBL document CHEMBL1201862.
